- assayedSystem: Dopamine D2 (DRD2S) (Homo sapiens)
- Sequence (P14416 1-414 isoform P14416-2): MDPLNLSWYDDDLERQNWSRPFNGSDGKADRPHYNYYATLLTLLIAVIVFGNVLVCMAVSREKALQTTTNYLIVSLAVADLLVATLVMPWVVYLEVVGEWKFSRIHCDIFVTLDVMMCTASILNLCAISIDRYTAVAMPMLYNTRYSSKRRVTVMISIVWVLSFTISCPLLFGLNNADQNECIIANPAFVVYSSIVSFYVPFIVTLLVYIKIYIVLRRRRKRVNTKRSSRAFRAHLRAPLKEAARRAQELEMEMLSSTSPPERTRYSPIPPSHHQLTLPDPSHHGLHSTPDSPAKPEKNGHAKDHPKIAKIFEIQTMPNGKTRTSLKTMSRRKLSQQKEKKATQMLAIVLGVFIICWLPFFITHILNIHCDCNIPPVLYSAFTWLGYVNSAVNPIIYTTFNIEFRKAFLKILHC
- measurementDescription: Off‐target panel: Dopamine D2 (DRD2S) (DRX)
- Format: cell-based
metricName: IC50

IN: Endpoint output: IC50 of CCC[C@@H](NC(=O)c1cccc2c1CC(=O)N2)[C@@H](O)c1cccc(F)c1C . Value?
OUT: > 100 µM

----------
- measurementDescription: Total and unbound drug concentrations in blood and liver of Z α1‐antitrypsin transgenic mice
- Type: in vivo
- conditionNotes: female, Z α1-antitrypsin transgenic (hemizygous), mouse, whole blood, oral, 10 mg/kg, 10 mg/kg three times a day, time 123 h; read-out: UNBOUND mean concentration ± SD, Blood
metricName: concentration at 123 h (µM)
Write the value in µM as a bare number.

IN: Which concentration at 123 h value is on record for CCC[C@@H](NC(=O)c1cccc2c1CC(=O)N2)[C@@H](O)c1cccc(F)c1C ?
OUT: 0.018

----------
- measurementDescription: Total and unbound drug concentrations in blood and liver of Z α1‐antitrypsin transgenic mice
- Assay type: in vivo
- conditionNotes: female, Z α1-antitrypsin transgenic (hemizygous), mouse, liver, oral, 100 mg/kg, 100 mg/kg three times a day, time 128 h; read-out: TOTAL mean concentration ± SD, Liver
metricName: concentration at 128 h (µM)
All answers are understood in µM, so give the number only.

IN: Item CCC[C@@H](NC(=O)c1cccc2c1CC(=O)N2)[C@@H](O)c1cccc(F)c1C [GSK716] has what recorded concentration at 128 h?
OUT: 28.4

----------
- assayedSystem: Serotonin 5HT2A (Homo sapiens, UniProt P28223)
- Sequence (P28223 whole entry): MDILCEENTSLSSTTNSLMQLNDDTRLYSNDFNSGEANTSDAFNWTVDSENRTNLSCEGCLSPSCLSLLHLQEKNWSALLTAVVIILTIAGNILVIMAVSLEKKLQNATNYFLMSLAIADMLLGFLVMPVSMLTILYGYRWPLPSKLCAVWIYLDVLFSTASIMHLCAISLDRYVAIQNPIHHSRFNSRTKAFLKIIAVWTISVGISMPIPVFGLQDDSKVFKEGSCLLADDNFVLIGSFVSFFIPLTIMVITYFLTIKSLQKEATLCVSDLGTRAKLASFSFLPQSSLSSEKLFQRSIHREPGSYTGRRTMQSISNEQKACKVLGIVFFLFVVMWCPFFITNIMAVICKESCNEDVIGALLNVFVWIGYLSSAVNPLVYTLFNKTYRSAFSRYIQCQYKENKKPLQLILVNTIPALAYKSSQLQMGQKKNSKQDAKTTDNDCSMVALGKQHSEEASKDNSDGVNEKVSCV
- measurementDescription: Off‐target panel: Serotonin 5HT2A (DRX)
- Assay type: cell-based
pEC50: −log10 of the molar value.
metricName: pEC50

IN: What value of pEC50 has been reported for the following compound? CCC[C@@H](NC(=O)c1cccc2c1CC(=O)N2)[C@@H](O)c1cccc(F)c1C
OUT: < 4.00

----------
- measurementDescription: Total and unbound drug concentrations in blood and liver of Z α1‐antitrypsin transgenic mice
- Assay type: in vivo
- conditionNotes: female, Z α1-antitrypsin transgenic (hemizygous), mouse, liver, oral, 10 mg/kg, 10 mg/kg three times a day, time 123 h; read-out: UNBOUND mean concentration ± SD, Liver
metricName: concentration at 123 h (nM)
Respond with the bare value in nM.

IN: Which measured concentration at 123 h value corresponds to CCC[C@@H](NC(=O)c1cccc2c1CC(=O)N2)[C@@H](O)c1cccc(F)c1C ?
OUT: 35

----------
- assayedSystem: UniProt:P41145
- Sequence (P41145 whole entry, species assumed): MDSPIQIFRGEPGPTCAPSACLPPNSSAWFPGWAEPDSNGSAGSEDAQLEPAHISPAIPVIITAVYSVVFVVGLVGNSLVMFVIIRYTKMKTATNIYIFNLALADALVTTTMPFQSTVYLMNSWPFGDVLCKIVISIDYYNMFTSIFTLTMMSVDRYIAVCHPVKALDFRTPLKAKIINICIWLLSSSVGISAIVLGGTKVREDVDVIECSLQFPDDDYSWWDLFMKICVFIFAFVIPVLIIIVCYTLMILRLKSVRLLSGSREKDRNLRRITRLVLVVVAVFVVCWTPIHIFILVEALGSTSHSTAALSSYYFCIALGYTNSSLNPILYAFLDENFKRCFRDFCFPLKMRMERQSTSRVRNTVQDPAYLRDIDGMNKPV
- measurementDescription: Off‐target panel: OPRK1
- Assay type: cell-based
metricName: EC50

IN: Could you tell me which EC50 is on file for CCC[C@@H](NC(=O)c1cccc2c1CC(=O)N2)[C@@H](O)c1cccc(F)c1C [GSK716] ?
OUT: > 100 µM

----------
- assayedSystem: UniProt P04150
- Sequence (P04150 whole entry, species assumed): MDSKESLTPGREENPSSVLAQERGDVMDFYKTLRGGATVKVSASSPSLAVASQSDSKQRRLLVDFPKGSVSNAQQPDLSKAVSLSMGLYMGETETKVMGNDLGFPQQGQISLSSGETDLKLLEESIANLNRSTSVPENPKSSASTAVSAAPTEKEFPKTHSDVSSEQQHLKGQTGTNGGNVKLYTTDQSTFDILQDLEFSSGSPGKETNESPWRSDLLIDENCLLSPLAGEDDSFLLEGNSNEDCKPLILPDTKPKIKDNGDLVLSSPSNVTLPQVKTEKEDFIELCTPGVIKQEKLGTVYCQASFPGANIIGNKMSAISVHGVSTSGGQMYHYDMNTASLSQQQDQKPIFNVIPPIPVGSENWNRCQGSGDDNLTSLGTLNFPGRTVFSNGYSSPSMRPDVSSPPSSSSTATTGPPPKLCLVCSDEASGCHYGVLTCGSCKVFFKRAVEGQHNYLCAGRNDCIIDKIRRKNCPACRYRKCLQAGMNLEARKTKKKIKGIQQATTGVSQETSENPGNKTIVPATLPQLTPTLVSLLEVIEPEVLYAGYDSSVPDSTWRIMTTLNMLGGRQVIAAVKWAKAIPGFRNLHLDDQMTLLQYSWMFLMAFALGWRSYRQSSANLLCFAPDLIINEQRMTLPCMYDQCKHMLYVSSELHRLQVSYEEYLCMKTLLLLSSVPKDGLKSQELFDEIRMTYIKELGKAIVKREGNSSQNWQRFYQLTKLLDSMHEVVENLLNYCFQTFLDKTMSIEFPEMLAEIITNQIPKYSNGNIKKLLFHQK
- measurementDescription: Off‐target panel: Glucocorticoid Receptor
- conditionNotes: Agonist, read-out: Mean (PXC50)
- Description: GSK716 selectivity and PK properties were profiled in order to investigate the suitability of GSK716 for progression into in vivo studies and the potential for taking it forward as a clinical candidate for testing in humans. Since GSK716 results in loss of inhibitory activity of α1‐antitrypsin, the effect of the compound was assessed on other closely related serpins. […]
metricName: EC50

IN: Quick one: EC50 for CCC[C@@H](NC(=O)c1cccc2c1CC(=O)N2)[C@@H](O)c1cccc(F)c1C [GSK716] ?
OUT: > 100 µM
